tested on: Protein phosphatase 1A (Homo sapiens)
Sequence (P35813 whole entry): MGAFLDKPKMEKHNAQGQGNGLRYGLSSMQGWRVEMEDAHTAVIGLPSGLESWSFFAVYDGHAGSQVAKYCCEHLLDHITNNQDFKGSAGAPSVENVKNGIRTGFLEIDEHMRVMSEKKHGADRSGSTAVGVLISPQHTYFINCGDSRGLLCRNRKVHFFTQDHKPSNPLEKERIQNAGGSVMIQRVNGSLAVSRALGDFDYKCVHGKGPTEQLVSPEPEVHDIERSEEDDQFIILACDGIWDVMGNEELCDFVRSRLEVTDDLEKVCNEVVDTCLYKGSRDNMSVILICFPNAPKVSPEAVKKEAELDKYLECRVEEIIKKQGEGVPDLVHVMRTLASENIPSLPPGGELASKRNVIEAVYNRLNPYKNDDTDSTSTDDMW
procedure details: Inhibition of recombinant human PPM1A using pNPP as substrate preincubated for 15 mins followed by substrate addition measured after 20 mins by absorbance based assay
List of IC50 values.
quantity name: IC50

> print(dat)
                                query.smiles  quantity.name  value.observed
 1       COc1cc2c[n+](CCO)c3ccc(F)cc3c2cc1OC           IC50         > 20 µM
 2  COc1cc2c[n+](CCO)c3ccc(F)cc3c2cc1-c1ccc(NC(=O)OC(C)(C)C)cc1           IC50         > 20 µM
 3  COc1cc2c[n+](CCO)c3ccc(F)cc3c2cc1C#Cc1ccccc1           IC50         > 10 µM
 4      OCC[n+]1cc2cc3c(cc2c2cc(F)ccc21)OCO3           IC50         > 20 µM
 5        COc1cc2c[n+](CCO)c3ccc(F)cc3c2cc1I           IC50         > 20 µM
 6        Cc1ccc2c(c1)c[n+](CCO)c1ccc(F)cc21           IC50         > 20 µM
 7  COc1cc2c[n+](CCO)c3ccc(F)cc3c2cc1-c1ccc2c(c1)OCO2           IC50         > 20 µM
 8    COc1cc2c[n+](CCO)c3ccc(F)cc3c2cc1C1CC1           IC50         > 20 µM
 9  COc1ccc2c(c1)c1ccc(OC(F)(F)F)cc1c[n+]2CCO           IC50         3.06 µM
10             OCC[n+]1cc2ccccc2c2cc(F)ccc21           IC50         > 20 µM
11  COc1ccc2c(c1)c[n+](Cc1cccc(O)c1)c1ccc(F)cc21           IC50         > 20 µM
12  COc1cc2c[n+](CCO)c3ccc(F)cc3c2cc1-c1ccc(F)cc1           IC50         > 20 µM
13                   OCC[n+]1cccc2cc(F)ccc21           IC50         > 20 µM
14          OCC[n+]1cc2cc(F)ccc2c2cc(F)ccc21           IC50         > 20 µM
15      COc1ccc2c(c1)c[n+](CCO)c1ccc(OC)cc21           IC50          2.6 µM
16  CC(C)COc1ccc2c(c1)c[n+](CCO)c1ccc(F)cc21           IC50         > 20 µM
17  OCC[n+]1cc2cc(OC(F)(F)F)ccc2c2cc(F)ccc21           IC50         1.43 µM
18          COc1ccc2c(c1)c[n+](CCO)c1ccccc21           IC50         > 20 µM
19   CC(C)Oc1ccc2c(c1)c[n+](CCO)c1ccc(F)cc21           IC50         3.72 µM
20                  COc1ccc2cc[n+](CCO)cc2c1           IC50         > 20 µM
21   COc1ccc2c(c1)c[n+](C(CO)CO)c1ccc(F)cc21           IC50         > 20 µM
22      COc1ccc2c(c1)c[n+](CCO)c1ccc(Br)cc21           IC50         4.51 µM
23      COc1ccc2c(c1)c[n+](CCO)c1ccc(Cl)cc21           IC50         > 20 µM
